Biological target: GST-CIB1 : F-scrambled peptide (Homo sapiens, UniProt Q99828)
Construct: made in house; host or cells: BL-21 plus RIL cells (E. coli)
Sequence (Q99828 whole entry): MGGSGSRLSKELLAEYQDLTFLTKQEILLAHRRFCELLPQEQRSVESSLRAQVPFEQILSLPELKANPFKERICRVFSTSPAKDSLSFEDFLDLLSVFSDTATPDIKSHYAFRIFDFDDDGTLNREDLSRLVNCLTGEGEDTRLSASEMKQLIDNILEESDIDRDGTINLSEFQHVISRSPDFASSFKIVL
Experiment: FP scrambled-peptide counter screen, 1536-well format
Assay type: binding
Conditions: counterscreen, qHTS curve class; negative sign = inhibitory curve
Think of -1 as a floor: if Curve Class (counterscreen) stands on it or above, it is T; beneath it, F.

Illustrative cases are given below, each with its answer.
[[record]]
sample_smiles = "COc1nc2ccc(Br)cc2cc1[C@@H](c1ccccc1)[C@@](O)(CCN(C)C)c1cccc2ccccc12"
target_or_system = "GST-CIB1 : F-scrambled peptide (Homo sapiens, UniProt Q99828)"
category_label = "F"

[[record]]
sample_smiles = "COc1ccc(NC(=O)c2[nH]c(C)c(C(C)=O)c2C)cc1S(=O)(=O)Nc1ccccc1C#N"
target_or_system = "GST-CIB1 : F-scrambled peptide (Homo sapiens, UniProt Q99828)"
category_label = "T"

[[record]]
sample_smiles = "COc1cc(Nc2c(C#N)cnc3cc(OCCCN4CCN(C)CC4)c(OC)cc23)c(Cl)cc1Cl"
target_or_system = "GST-CIB1 : F-scrambled peptide (Homo sapiens, UniProt Q99828)"
category_label = "F"


Query molecule follows.
Request: Could you please find out whether `COc1ccc(C(=O)c2no[n+]([O-])c2C(=O)c2ccc(OC)cc2)cc1.O=C(O)C(F)(F)F` has Curve Class (counterscreen) that meets -1 or exceeds it?
Result: F
